- Test system: Trogoderma granarium
- Experimental protocol: Antifeeding activity against Trogoderma granarium (khapra beetle ) larvaes in compound treated wheat wafer disk assessed as absolute coefficient of deterrence by feeding deterrent activity test
- Format: functional
Endpoint name: FDI
Lab note: jot the number down without any unit.

The observed FDI for COc1ccc2c(c1)OC(C)(C)C1=C2OC(=O)C1 when tested with Trogoderma granarium stands at 34.5

The observed FDI for COc1cc2c(cc1OC)[C@@H]1OC(=O)C[C@]1(I)C(C)(C)O2 (racemic) when tested with Trogoderma granarium stands at 39.6

The observed FDI for COc1ccc2c(c1)OC(C)(C)C=C2 [PROCOCENE I] when tested with Trogoderma granarium stands at 41.8

The observed FDI for COc1cc2c(cc1OC)OC(C)(C)C(CC(=O)O)=C2 when tested with Trogoderma granarium stands at 11.9

The observed FDI for COc1cc2c(cc1OC)OC(C)(C)C=C2 [PROCOCENE II] when tested with Trogoderma granarium stands at 98.6

The observed FDI for COc1cc2c(cc1OC)C1=C(CC(=O)O1)C(C)(C)O2 when tested with Trogoderma granarium stands at 31.2

The observed FDI for COc1ccc2c(c1)OC(C)(C)[C@@]1(I)CC(=O)O[C@@H]21 (racemic) when tested with Trogoderma granarium stands at 31.6

The observed FDI for COc1ccc2c(c1)OC(C)(C)C(CC(=O)O)=C2 when tested with Trogoderma granarium stands at 22

Source: ChEMBL document CHEMBL3046774
